Value source: the supplement of paper PMC9170038

- Tested on: K4 kissing-loop RNA reporter;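 also: bound reporter read as fluorescence of individual clusters on recovered sequencing chips by microscopy, with normalized cluster intensities fitted with a binding model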
- MEASUREMENT_DESCRIPTION: apparent KD of K4 kissing-loop reporter; higher = weaker reporter binding
- RECORDED_CONDITIONS: Eterna round: R107; input ligand: none
Think of 300 nM as a floor: if apparent KD of K4 kissing-loop reporter stands on it or above, it is Criterion met; beneath it, Criterion not met.

* UGAUAGGACAGAAGGAGCGGUAGUGAUGUUACCAAAAGUAUAAGGUGUCAAAAGACACCCUACCAGGUAGGUCGCUGUCCUAUCU | Criterion met
* UGUCAUUGGUCGGCCGCCACUUUAUAUGGAGUGAUGUUUUGUAGAUUGUGUUGAAAGGUGUGGUGAAGGACCGGGACCGAUGACU [FiskerMod 25 - Jieux - Same State - Tryptophan B] | Criterion met
* AAUUUAGUGACGGCCGCCACUAGGGUGAUUUUUUUGUUUGAGUGAUGUUUUGAUGUUUGAUUUUGUAGGACCGGGUUAGGUGAUG [cccmullin] | Criterion met
* AGUACGGCAAACUUGCAACAAGCCGUACCACGAGGACCGGUACGGCCGCCACUCGAUAACUUGCAGUGAUGUUGCAAGUAAGAAU [(T)''-(K)'-(T)'-(T1)-(T2)-(K1)-(K2)_Design5] | Criterion not met
* UGUCAUUGGUCGGCCGCCACUUCAUGUAGAGUGAUGUUCUGUAAGACGGAUCGAAAGAUCUGUCGAAGGACCGGGACCGAUGACU [FiskerMod 13 - Jieux - Same State - Tryptophan B] | Criterion met

====

- System: MS2 coat protein
- MEASUREMENT_DESCRIPTION: apparent KD of MS2 coat protein; designed switch direction (-1 OFF switch, 1 ON switch): 1; higher = weaker reporter binding
- RECORDED_CONDITIONS: input ligand: FMN 200 uM
apparent KD of MS2 coat protein listing for selected sequences.
OBSERVABLE: apparent KD of MS2 coat protein

* UUUUUGUUCCGAGGAUAUCCUUUUUUCUUACAUGAGGAUCACCCAUGUAAAGGGAUUGAGUUGUAGGAGAAGGCGGUUUUGUUU [JR_SSNG2_Sub061] (Eterna round: R96, puzzle: Same State NG 2) | 0.0164 µM
* AAAGAAACUACAGGAUAUGCGUGGGAAAGAUAGGCAGAAGGGUGGAUAAUAAAUUCCAGCACAUGAGGAUCACCCAUGUACUGG [Ince] (Eterna round: R96, puzzle: Same State NG 1) | 0.017 µM
* CGUGAACAUGAGGAUCACCCAUGUGAAAAACGUAGAGGAUAUGUCACAUGAGUGUAAAAGACAGAAGGCUAUCGUG [Mod 2 of Round 1 starryjess' Mod pf Nando] (Eterna round: R96, puzzle: Same State 1) | 0.0353 µM
* GCUCGCGACGCAGGAUAUGGGUGCCUGUACAUGAGGAUCACCCAUGUUAAGGGACGGAAAACGAACCAGAAGGGCGUCACGAGC [Ceusdian] (Eterna round: R96, puzzle: Same State NG 2) | 0.0681 µM
* UUCCUUCUCGUAGGAUAUGUAGGAUAUUCCUACAUGAGGAUCACCCAUGUUCGCAUGGAAGAAGGACAGAAGGACGAUCACCCU [pwkr ssNG2 2FMN + 1F5.11] (Eterna round: R96, puzzle: Same State NG 2) | 0.0913 µM
